Tested on: CAKI-1 renal
Assay name: NCI-60 one-dose screen, 48 h (100 = growth as untreated, 0 = no growth, -100 = all killed)
Test parameters: 10 µM unless noted
About 83,000 compounds went through this panel and 20% of them were active in at least one assay; those are over-represented in the sample as a whole.
Mark each entry class 1 if its growth sits below 80%, and class 0 for all others.

Below, 4 compounds whose answers are already recorded.
{"Compound": "CCCCCCCC1(C)NC(=O)NC1=O (stereo unspecified)", "Study system": "CAKI-1 renal", "Class label": "class 0"}
{"Compound": "O=C1NC(=O)/C(=C\\c2ccccc2)C2=C1CCCC2", "Study system": "CAKI-1 renal", "Class label": "class 1"}
{"Compound": "CCN(CC)CCCNCCCNc1cc(OC)cc2cccnc12", "Study system": "CAKI-1 renal", "Class label": "class 0"}
{"Compound": "NC(=O)NN=C(C1CC1)C1CC1", "Study system": "CAKI-1 renal", "Class label": "class 0"}

# next compound below
query: Say whether its growth is strictly beneath 80%. Entry: Nc1nc2ncc(CCNc3ccc(C(=O)NC(CCC(=O)O)C(=O)O)cc3)nc2c(=O)[nH]1 (stereo unspecified)
result: class 0
